# assayText: yeast display, Sf9 membrane polyspecificity reagent, FACS + sequencing; frameworks hold sequencing errors
measurementType: polyreactivity (PSR sort gate)

Previously resolved entries follow.
{"columns": ["sequenceText", "polyreactivity (PSR sort gate)"],
 "data": [
  ["QVQLVESGGGLVQAGGSLRLSCAASGITFTVYAMGWYRQAPGKERELVAAITSTGSTNYAHSVKGRFTISRDNAKNTVYLLMNSLKPEDTAVYYCAADRQITVYAYDYWGQGTQVTVSS", "low polyreactivity"],
  ["QVQLVESGGVLVQAGGSLRLSCAASGRIFTRNAMGWYRQAPGKERELVASITRGGSTYYADSVKGRFTISRDNAKITVYLQMNCLKAEDTALYYCAAVFYDRGQRYNYWGQGTQVTVSS", "high polyreactivity"],
  ["QVQLVESGGGLVQAGGSLRLSCAASGSIFYVYAMGRYRQAPGTEWELVAAISSGDISYYADSVKGRFTISRDNAKNTVYLQKNSLKPEDTAVYYCNAERLGNTLSPGGDDYWGQGTQVTVSS", "low polyreactivity"],
  ["QVQLVESGGGLVQAGGSLRLSCAASGSTFKYNTMGWYRQAPGKESELVARISWSGTRTYYADSVKGRFTISRYNAKNTVYLQMNSLKPEDTAVYYCAKVSYFWSPYGYDSCGQGTQVTVSS", "high polyreactivity"]
]}

Kindly review the next sequence as well.
Which polyreactivity (PSR sort gate) is reported for this sequence? QVQLVESGGGLVQAGGSLRLSCAASGRIFYRYVMGWYRQAPGKERELVAAISRGGGTNYADSVKGRFTISRDNAKNTVYLQMNSLKPEDTAVYYCAARGSPGAGYYWGQGTQVTVSS
high polyreactivity

* * *

# assayText: yeast display, Sf9 membrane polyspecificity reagent, FACS + sequencing; frameworks hold sequencing errors
measurementType: polyreactivity (PSR sort gate)

Previously resolved entries follow.
{"columns": ["sequenceText", "polyreactivity (PSR sort gate)"],
 "data": [
  ["QVQLVESGGGLVQAGGSLRLSCAASGSIFPNNAMGWYRQAPGKERELVAAISSSARTYYADSVKGRFTISRDNAKNTVYLQMNSLKPEDTAVYYCAARWYGRFLMGYWGQGTQVTVSS", "high polyreactivity"],
  ["QVQLVESGGGLVQAGGSLRLSCAASGNIFDLYARGWSRQAPGKERELVAAISASGGRTYYADSVKGRFTISRDNAKNTVYLQMNSLKPEDTAVYYCAAVASYGTDFYYWGQGTQVTVSS", "high polyreactivity"],
  ["QVQLVDSGGGLVQAGGRLRLSCAASGRTFSKYAMGWYRQAPGKERELVASITRSGGSTNYADTVKGRFTISRDNAKNTVYLQKNSLKPEDTAVYYCRRKLGRTHDTGFDYWGQGTQVTVSS", "low polyreactivity"],
  ["QVHLVESGGGLVQAGGSLRLSCAASGSIFDYYAMGWYRQAPGKERELVAAITYDSGRTYYADSVKGRFTNSRDNAKNTVYLQMYSLKPEDTAVYYCNKYSYSWRYCPGTSGYDYWGQGTQVTVSS", "low polyreactivity"]
]}

Kindly review the next sequence as well.
Which polyreactivity (PSR sort gate) is reported for this sequence? QVHLVESGGGLVQAGGSLRLSFAASGRTFSTNAMGWYRQAPGKERELVAAISSTGGRTYYADSVKGRFTISRDNAKNTVYLQMNSLKPEDTAVYYCNTKLKGKGEGFDYWGQGTQVTVSS
high polyreactivity
